# system: human GluN1/GluN2B NMDA receptors (Homo sapiens)
# assay: Calcium flux (FLIPR) assay on cloned human NR1/GluN2B ion channels expressed in mammalian cells (standard and HTS variants)
# conditionLabel: cells expressing human GluN1/GluN2B, glutamate and glycine co-agonists
pIC50: −log10 of the molar value.
quantityKind: pIC50

Previously resolved entries follow.
{"columns": ["compound", "pIC50"],
 "data": [
  ["CC(F)(F)c1cc(-c2cnc3cnn(Cc4cncnc4)c3c2)ccc1F [Example 277]", 7.19],
  ["Cc1cncc(Cn2ncc3ncc(-c4cc(C)cs4)cc32)c1 [Example 138]", 6.80],
  ["OCc1nnc(Cn2ncc3ncc(-c4ccc(F)c(C(F)F)c4)cc32)o1 [Example 292]", 6.77],
  ["Fc1ccc(-c2cnc3cnn(Cc4cncc(C(F)(F)F)c4)c3c2)cc1C(F)F [Example 211]", 7.33]
]}

[a] N#Cc1cccc(Cn2ncc3ncc(-c4ccc(F)c(OC(F)F)c4)cc32)c1 [Example 29]
[b] Cc1cnc(Cn2ncc3ncc(-c4ccc(F)c(C)c4)cc32)s1 [Example 68]
[c] Cc1cc(Cn2ncc3ncc(-c4ccc(F)cc4)cc32)on1 [Example 42]
[d] Cc1nnc(Cn2ncc3ncc(-c4ccc(F)c(OC(F)F)c4)cc32)o1 [Example 113]
[e] Nc1nnc(Cn2ncc3ncc(-c4ccc(F)c(C(F)F)c4)cc32)s1 [Example 16]
Your job: order these 5 records by pIC50, ascending. Submit the labels in the order that the ranking request calls for.
e, c, b, d, a

----------
# system: human GluN1/GluN2B NMDA receptors (Homo sapiens)
# assay: Calcium flux (FLIPR) assay on cloned human NR1/GluN2B ion channels expressed in mammalian cells (standard and HTS variants)
# conditionLabel: cells expressing human GluN1/GluN2B, glutamate and glycine co-agonists
Counter-ions that a name gives are not always drawn.
quantityKind: IC50 (nM)

{"columns": ["compound", "readoutValue"],
 "data": [
  ["Fc1ccc(-c2cnc3cnn(Cc4ccccn4)c3c2)cc1C(F)F", 130],
  ["Fc1ccc(-c2cnc3cnn(Cc4cncc(OC(F)F)c4)c3c2)cc1", 1150],
  ["Fc1ccc(-c2cnc3cnn(Cc4cccnc4)c3c2)cc1OC(F)F", 38],
  ["Cc1nnc(Cn2nc(F)c3ncc(-c4cccc(C(C)(F)F)c4)cc32)o1", 126],
  ["Cc1nc(Cn2ncc3ncc(-c4cccc(C(F)(F)F)c4)cc32)no1", 202],
  ["Fc1ccc(Cn2ncc3ncc(-c4ccc(F)c(C(F)F)c4)cc32)s1", 1030],
  ["Cc1ncccc1Cn1ncc2ncc(-c3cccc(C(F)(F)F)c3)cc21", 870],
  ["Cc1cc(-c2cnc3cnn(Cc4nnc(C(F)(F)F)o4)c3c2)ccc1F", 145],
  ["COc1cccc(Cn2ncc3ncc(-c4ccc(F)c(OC(F)F)c4)cc32)n1", 383],
  ["COc1ncccc1Cn1ncc2ncc(-c3cccc(C(F)(F)F)c3)cc21 [Example 172, trifluoroacetate salt]", 7780]
]}

[P] Cn1ccc(Cn2ncc3ncc(-c4ccc(F)c(C(F)F)c4)cc32)n1
[Q] N#Cc1cncc(Cn2ncc3ncc(-c4ccc(F)c(OC(F)F)c4)cc32)c1
// returns P or Q , whichever has the lower IC50 Let me know the label of the one you choose.
Q

----------
# system: human GluN1/GluN2B NMDA receptors (Homo sapiens, UniProt Q13224)
# Sequence (Q13224 27-1484, other chains not shown): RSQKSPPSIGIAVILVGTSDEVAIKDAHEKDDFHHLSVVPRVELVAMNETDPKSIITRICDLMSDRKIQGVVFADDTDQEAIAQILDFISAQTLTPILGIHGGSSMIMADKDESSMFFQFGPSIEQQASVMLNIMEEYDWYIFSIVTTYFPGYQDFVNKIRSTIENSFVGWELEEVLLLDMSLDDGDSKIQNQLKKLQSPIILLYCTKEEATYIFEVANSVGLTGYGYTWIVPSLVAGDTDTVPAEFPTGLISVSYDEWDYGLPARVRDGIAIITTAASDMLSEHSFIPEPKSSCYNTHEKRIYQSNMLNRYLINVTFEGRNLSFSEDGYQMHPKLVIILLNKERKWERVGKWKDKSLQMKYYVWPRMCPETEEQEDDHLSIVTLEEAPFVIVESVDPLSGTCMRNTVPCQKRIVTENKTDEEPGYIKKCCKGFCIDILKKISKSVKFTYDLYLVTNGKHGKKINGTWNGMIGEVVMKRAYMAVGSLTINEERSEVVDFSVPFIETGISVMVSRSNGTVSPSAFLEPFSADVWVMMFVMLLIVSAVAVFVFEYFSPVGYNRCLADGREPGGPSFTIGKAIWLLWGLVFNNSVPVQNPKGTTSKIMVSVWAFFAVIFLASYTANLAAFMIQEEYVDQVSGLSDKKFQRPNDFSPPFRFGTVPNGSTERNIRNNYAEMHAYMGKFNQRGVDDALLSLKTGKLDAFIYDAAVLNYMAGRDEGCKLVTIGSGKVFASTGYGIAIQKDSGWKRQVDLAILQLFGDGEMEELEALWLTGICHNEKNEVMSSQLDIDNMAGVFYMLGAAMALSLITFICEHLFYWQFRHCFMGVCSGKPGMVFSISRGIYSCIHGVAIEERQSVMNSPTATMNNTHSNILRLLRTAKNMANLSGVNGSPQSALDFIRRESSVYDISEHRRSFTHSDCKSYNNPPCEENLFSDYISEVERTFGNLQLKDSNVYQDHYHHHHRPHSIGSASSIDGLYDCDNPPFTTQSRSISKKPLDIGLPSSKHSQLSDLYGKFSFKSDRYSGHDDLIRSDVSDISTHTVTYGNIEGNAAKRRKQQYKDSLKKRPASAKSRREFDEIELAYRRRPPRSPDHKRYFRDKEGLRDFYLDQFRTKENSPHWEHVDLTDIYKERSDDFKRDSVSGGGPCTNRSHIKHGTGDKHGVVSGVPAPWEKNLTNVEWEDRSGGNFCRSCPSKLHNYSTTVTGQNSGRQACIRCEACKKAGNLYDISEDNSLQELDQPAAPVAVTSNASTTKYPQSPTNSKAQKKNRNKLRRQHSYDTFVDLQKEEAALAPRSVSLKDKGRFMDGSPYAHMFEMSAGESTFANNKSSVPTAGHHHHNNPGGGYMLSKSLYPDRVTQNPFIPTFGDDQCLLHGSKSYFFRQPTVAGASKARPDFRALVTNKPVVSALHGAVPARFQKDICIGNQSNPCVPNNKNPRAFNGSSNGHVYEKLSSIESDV
# assay: Calcium flux (FLIPR) assay on cloned human NR1/GluN2B ion channels expressed in mammalian cells (standard and HTS variants)
# conditionLabel: cells expressing human GluN1/GluN2B, glutamate and glycine co-agonists
# Experimental: Effects of Test Articles on Cloned Human NR1/GuN2B Ion Channels Expressed in Mammalian Cells NMDA receptors are ion channels that are highly permeable to Ca^2+ ions, rendering it possible to monitor NMDA receptor function using cell-based calcium flux assay. […] The time course of the changes in intracellular calcium is measured using a fluorescent dye and a FLIPR (Fluorometric Imaging Plate Reader) device. […]
pIC50: −log10 of the molar value. Structures can show the parent of a compound that is named as a salt.
quantityKind: pIC50

Previously resolved entries follow.
{"columns": ["compound", "system", "pIC50"],
 "data": [
  ["Cc1cc(-c2cnc3cnn(Cc4ccc(F)nc4)c3c2)ccc1F", "human GluN1/GluN2B NMDA receptors (Homo sapiens, UniProt Q13224)", 7.19],
  ["Fc1cccc(-c2cnc3cnn(Cc4cccnn4)c3c2)c1 [Example 256, trifluoroacetate salt]", "human GluN1/GluN2B NMDA receptors (Homo sapiens, UniProt Q13224)", 5.85],
  ["Cc1cncc(Cn2ncc3ncc(-c4cccc(C(F)(F)F)c4)cc32)c1", "human GluN1/GluN2B NMDA receptors (Homo sapiens, UniProt Q13224)", 6.60]
]}

[P] CC(F)(F)c1cc(-c2cnc3cnn(Cc4cncc(Cl)c4)c3c2)ccc1Cl
[Q] Fc1ccc(-c2cnc3cnn(Cc4cncc(Cl)c4)c3c2)cc1OC(F)F
Higher pIC50: P or Q ? Let me know the label of the one you choose.
Q
